Exercise: state measured (F) hLRRC33, Cell-associated proTGFb1 (KD) for each of the molecules provided.
- TESTED_SYSTEM: T1, recombinant human LRRC33-proTGFβ1 complex (Homo sapiens, UniProt P01137)
- T1 construct: made in house
- T1 sequence (P01137 30-390): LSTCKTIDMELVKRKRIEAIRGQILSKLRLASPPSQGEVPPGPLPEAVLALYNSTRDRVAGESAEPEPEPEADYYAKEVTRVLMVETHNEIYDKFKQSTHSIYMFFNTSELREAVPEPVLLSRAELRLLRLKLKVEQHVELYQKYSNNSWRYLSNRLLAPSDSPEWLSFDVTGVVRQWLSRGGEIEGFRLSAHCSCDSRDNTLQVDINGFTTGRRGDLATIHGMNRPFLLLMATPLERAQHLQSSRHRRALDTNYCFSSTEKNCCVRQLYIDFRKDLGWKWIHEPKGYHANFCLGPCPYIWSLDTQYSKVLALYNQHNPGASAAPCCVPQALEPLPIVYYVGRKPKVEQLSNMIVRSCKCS
- T1 sequence (Q86YC3 19-650 partner limits assumed): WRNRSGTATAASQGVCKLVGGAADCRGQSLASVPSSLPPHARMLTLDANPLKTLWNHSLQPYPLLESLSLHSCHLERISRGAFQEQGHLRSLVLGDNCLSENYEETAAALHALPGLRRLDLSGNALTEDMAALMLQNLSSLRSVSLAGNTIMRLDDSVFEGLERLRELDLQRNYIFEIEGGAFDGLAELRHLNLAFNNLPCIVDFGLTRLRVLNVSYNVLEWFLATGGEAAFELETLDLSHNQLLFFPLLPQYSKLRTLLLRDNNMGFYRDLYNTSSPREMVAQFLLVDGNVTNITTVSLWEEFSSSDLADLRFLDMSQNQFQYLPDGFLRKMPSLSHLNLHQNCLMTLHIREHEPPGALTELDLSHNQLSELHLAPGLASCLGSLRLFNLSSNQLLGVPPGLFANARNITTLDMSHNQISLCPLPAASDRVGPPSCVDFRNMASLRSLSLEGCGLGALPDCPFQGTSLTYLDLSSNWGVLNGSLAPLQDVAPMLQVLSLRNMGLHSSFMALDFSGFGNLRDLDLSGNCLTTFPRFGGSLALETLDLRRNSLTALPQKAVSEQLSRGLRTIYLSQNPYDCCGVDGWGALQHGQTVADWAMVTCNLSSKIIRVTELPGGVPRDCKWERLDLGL
- PROTOCOL_DESCRIPTION: Octet (Biolayer Interferometry) in vitro kinetic binding
- MEASUREMENT_SETUP: in M
Respond numerically, and do not add a unit to the figure.

Can you look up the measured (F) hLRRC33, Cell-associated proTGFb1 (KD) of Ab31: monoclonal antibody; VH SEQ ID NO: 139, VL SEQ ID NO: 15 (antibody, V domains shown) VH: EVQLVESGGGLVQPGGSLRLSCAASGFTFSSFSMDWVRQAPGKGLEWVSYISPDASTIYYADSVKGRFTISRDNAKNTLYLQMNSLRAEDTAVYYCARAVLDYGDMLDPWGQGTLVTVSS VL: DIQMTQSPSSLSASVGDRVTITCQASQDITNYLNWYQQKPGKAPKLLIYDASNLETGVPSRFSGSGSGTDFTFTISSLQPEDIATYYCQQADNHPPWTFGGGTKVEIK for me?
4.10E−10

Param item = Ab14: monoclonal antibody; VH SEQ ID NO: 244, VL SEQ ID NO: 243 (antibody, V domains shown) VH: EVQLLESGGGLVQPGGSLRLSCAASGFTFSAYAMTWVRQAPGKGLEWVSAISGTGGSTYYADSVKGRFTISRDNSKNTLYLQMNSLRAEDTAVYYCARVSSGHWDFDYWGQGTLVTVSS VL: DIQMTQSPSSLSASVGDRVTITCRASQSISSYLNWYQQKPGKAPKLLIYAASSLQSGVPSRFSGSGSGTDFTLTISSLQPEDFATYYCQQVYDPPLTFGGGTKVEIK ; retrieve measured (F) hLRRC33, Cell-associated proTGFb1 (KD).
1.34E−09
